Counter-ions that a name gives are not always drawn.
metric: melting point

Give its melting point value. Item: c1ccc2c(=Nc3ccncc3)cc3oc4cc(N5CCCCC5)ccc4nc-3c2c1
266.8 to 268.2 °C

Similarly, CCN(CC)c1ccc2nc3c4ccccc4c(=Nc4nc5ccc(Cl)cc5s4)cc-3oc2c1 ?
229 to 231 °C

Let us now turn to CCN(CC)c1cc(C)c2c(c1)OC1=CC(Nc3cccnc3)c3ccccc3C1=N2 (stereo not shown) (as salt: HCl)
161.6 to 163.1 °C

We now examine a further molecule.
May I ask what melting point has been recorded for CCN(CC)c1ccc2nc3c4ccccc4c(=Nc4nc5ccc(OC)cc5s4)cc-3oc2c1 ?
197 to 198 °C
